Reference source for all entries: patent US20250074891A1

Measured Target: MLKL (full length) (Homo sapiens (Human))
Sequence (Q8NB16 whole entry): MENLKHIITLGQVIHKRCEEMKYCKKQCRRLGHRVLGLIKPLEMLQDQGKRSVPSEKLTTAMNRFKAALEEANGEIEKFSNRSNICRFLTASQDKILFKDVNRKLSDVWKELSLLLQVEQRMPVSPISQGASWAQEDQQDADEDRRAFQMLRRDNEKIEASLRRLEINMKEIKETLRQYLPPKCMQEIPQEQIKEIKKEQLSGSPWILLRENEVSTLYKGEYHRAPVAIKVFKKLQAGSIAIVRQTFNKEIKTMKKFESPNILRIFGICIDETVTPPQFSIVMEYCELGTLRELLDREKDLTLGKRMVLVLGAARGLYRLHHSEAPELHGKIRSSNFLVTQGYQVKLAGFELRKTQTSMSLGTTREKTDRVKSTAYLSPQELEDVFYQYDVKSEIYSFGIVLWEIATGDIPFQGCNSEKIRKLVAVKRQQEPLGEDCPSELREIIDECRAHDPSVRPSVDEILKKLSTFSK
Method Summary: KINOMEscan binding assay, MLKL (full length)
Measurement Setup: Table 36
Measured Attribute: Kd

Sample answers from the record:
[[record]]
smiles_data = "Cc1ncsc1-c1ccc(CNC(=O)[C@@H]2C[C@@H](O)CN2C(=O)[C@@H](NC(=O)CCCCC#Cc2ccc(Nc3[nH]nc(-c4ccc(NS(=O)(=O)C(F)F)c(O[C@@H](C)c5ccc(F)cc5)c4)c3C(N)=O)nc2)C(C)(C)C)cc1"
observed_value = "10 to 1000 nM"

[[record]]
smiles_data = "Cc1ncsc1-c1ccc(CNC(=O)[C@@H]2C[C@@H](O)CN2C(=O)[C@@H](NC(=O)CN2CCC(Oc3ccc(Nc4[nH]nc(-c5ccc(NS(=O)(=O)C(F)F)c(O[C@@H](C)c6ccc(F)cc6)c5)c4C(N)=O)nc3)CC2)C(C)(C)C)cc1"
observed_value = "10 to 1000 nM"


Proceed to the following item.
Return value of Kd for input CCS(=O)(=O)Nc1ccc(-c2n[nH]c(Nc3ccnc(OCCOCC(=O)N[C@H](C(=O)N4C[C@H](O)C[C@H]4C(=O)NCc4ccc(-c5scnc5C)cc4)C(C)(C)C)c3)c2C(N)=O)cc1 , no commentary. 10 to 1000 nM
